Below: a set of entries, each annotated with reported glycan array binding signal (z-score).
STUDY_SYSTEM: GlcA(b1-6)Gal
ASSAY_OVERVIEW: glycan array binding signal (z-score within array); higher = stronger binding
CONDITION_DESCRIPTION: glycan notation: IUPAC condensed, linker removed
The entries come from a sample that favours the strongest signals as a whole.
Form field (numeric): enter value without unit.

Past entries and their recorded results:
### Prompt Item BabA (Helicobacter pylori), O52269_HELPY (protein) AEDDGFYMSAGYQIGEAAQMVKNTKGIQELSDNYENLSNLLTRYSTLNTLIKLSADPSAVNAARENLGASAKNLIGDTKNSPAYQAVLLAINAAVGFWNVVGYVTQCGGNANGQKSTSSTTIFNNEPGYRSTSITCSLNGHMPGYYGPMSIENFKKLNEAYQILQTALKNGLPALKENNGTVNVTYSYTCSGEGNDNCSLQTTGVTNQNNGTKTETQTIDGKSVTTTISSKVVDSQ has what recorded glycan array binding signal (z-score)?
### Response -0.267

### Prompt Item Epa2 (Candida glabrata) (protein) MGSSHHHHHHSSGLVPRGSHMASSKDPTSFPMGCSPQVLKTQPGLAVKLYSYGHPVPGCAYNTYQYPDFPRSGYKKERKLADITGVNGRIDIDLKPNDPCRVLSGNLPSNYNYQNTLTYTNFTMILYGYFQPKVTGYHTFNLEADDLLFMNLGAGNAFDCCRAESTLDNFGNYQSYSIWGTDKATADLTVFLVSGIYYPIRLFYVNRDNNAVLDFSFSTEFNKEIIHDFTSYFFSASDEEQCPGNI has what recorded glycan array binding signal (z-score)?
### Response 0.586

### Prompt Item GH95CBM (Clostridium perfringens) (protein) EKVAVETSVYLSELEWKSASTGYGEIQKDASCDGNTITLKGENGEKVSYDKGIGTHAHSEIVYSLEGLDYYDYFETFVGVDQEMAGTVASISFEVYLDNEKVFDSGLMTGDTTQKHVKVPIAGKNTLKLVVKDGGDSIGSDHGSFGDAKLT has what recorded glycan array binding signal (z-score)?
### Response -0.227

### Prompt Item RfpB (Mycobacterium tuberculosum), O05594 (protein) MAAGLVTASMSLSTAVAHAGPSPNWDAVAQCESGGNWAANTGNGKYGGLQFKPATWAAFGGVGNPAAASREQQIAVANRVLAEQGLDAWPTCGAASGLPIALWSKPAQGIKHAGPSPNWDAVAQCESGGNWAANTGNGKYGGLQFKPATWAAFGGVGNPAAASREQQIAVANRVLAEQGLDAWPTCGA has what recorded glycan array binding signal (z-score)?
### Response -0.284

Could you now look at the following binder, please?
### Prompt Item Epa3to1 (Candida glabrata) (protein) MGSSHHHHHHSSGLVPRGSHMKRELSSQNPFGYPIGCSPQDVAIIPGLTMELYSYPIVSGTPPNCYDASYVDPEYPRTGYLKRKMVGKSTGVTGNLNYKYSVEKACMVKYGNLPAGYNYNEPLTVSNFTMILYGYFKAQTTGLHTFFVNADDLLYINFGAGNAFDCCKREDSKTKLGEYVAYDIWHVDSSKNKVSLFLEKDLYYPIRMFFNNREYDSSLDLSFSVNGATDQISDFSGYLYSVPDQPDTCPAHIGYDTTCR has what recorded glycan array binding signal (z-score)?
### Response 0.35
